Assayed Target: rat squalene synthetase (Rattus norvegicus, UniProt Q02769)
Sequence (Q02769 1-416): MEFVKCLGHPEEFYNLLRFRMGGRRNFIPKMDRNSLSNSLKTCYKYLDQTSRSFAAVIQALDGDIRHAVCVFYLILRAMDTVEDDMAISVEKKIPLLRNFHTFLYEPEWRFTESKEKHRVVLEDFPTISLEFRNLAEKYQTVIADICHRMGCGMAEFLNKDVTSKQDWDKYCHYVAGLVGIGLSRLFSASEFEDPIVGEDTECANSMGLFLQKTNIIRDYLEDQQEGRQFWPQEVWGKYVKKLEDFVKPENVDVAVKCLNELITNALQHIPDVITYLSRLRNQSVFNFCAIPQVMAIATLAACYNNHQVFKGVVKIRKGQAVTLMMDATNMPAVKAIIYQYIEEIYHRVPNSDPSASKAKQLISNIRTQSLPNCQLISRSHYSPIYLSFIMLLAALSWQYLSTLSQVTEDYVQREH
pIC50: −log10 of the molar value.
Observation Type: pIC50

> print(dat)
                                   compound                            assayed.target  observation.type  quantitative.readout
1  COC(=O)CCc1cnc(C[C@H]2S[C@H](c3cccc(OC)c3OC)c3cc(Cl)ccc3-n3c2nnc3C(F)(F)F)s1 (relative stereo)  rat squalene synthetase (Rattus norvegicus, UniProt Q02769)             pIC50                  8.31
2  COc1cccc(C2SC(CC(=O)N3CCC(CC(=O)O)CC3)c3nnc(C(F)(F)F)n3-c3ccc(Cl)cc32)c1OC (single isomer, unassigned)  rat squalene synthetase (Rattus norvegicus, UniProt Q02769)             pIC50                  8.12

I: COc1cccc([C@H]2O[C@H](Cc3ncc(CCC(=O)O)s3)c3nnc(C(F)(F)F)n3-c3ccc(Cl)cc32)c1OC (relative stereo)
II: O=C(O)CC1CCN(C(=O)CC2OC(c3cccc4ccccc34)c3cc(Cl)ccc3-n3cccc32)CC1 (stereo not shown)
Request: Problem: Given the entries I and II , determine which has the lower reported pIC50. Identify your selection by its label.
Result: I
(I: 8.34, II: 9.25)

###

Tested on: liver-cholesterol synthesis
Protocol: Rat single-dose liver-cholesterol synthesis inhibitory effect
Type: in vivo
Condition Notes: Wistar male rats, 3 mg/kg orally, 14C-mevalonic acid i.p. one hour later, liver taken one hour after that, relative to control group
Observation Type: Liver-cholesterol synthesis inhibitory effect (%)
Expressed in %, but write only the number.

Consider the following illustrative entries.
> print(dat)
                                   compound  quantitative.readout
1  COC(=O)CCc1cnc(C[C@H]2S[C@H](c3cccc(OC)c3OC)c3cc(Cl)ccc3-n3c2nnc3C(F)(F)F)s1 (relative stereo)                    75
2  COc1cccc(C2SC(CC(=O)N3CCC(CC(=O)O)CC3)c3nnc(C(F)(F)F)n3-c3ccc(Cl)cc32)c1OC (single isomer, unassigned)                    80
3  COc1cccc([C@H]2O[C@H](CCn3cc(C(=O)O)cn3)c3nccn3-c3ccc(Cl)cc32)c1OC                    84
4  COc1cccc([C@H]2O[C@H](CCn3nnc(CC(=O)O)n3)c3cccn3-c3c(F)cc(Cl)cc32)c1OC                    68
5  COc1cccc(C2SC(CC(=O)O)c3nnc(C(F)(F)F)n3-c3ccc(Cl)cc32)c1OC (stereo not drawn)                    90

Request: Consider the compound COc1cccc([C@H]2O[C@H](Cc3ncc(CCC(=O)O)s3)c3nnc(C(F)(F)F)n3-c3ccc(Cl)cc32)c1OC (relative stereo) and give its recorded Liver-cholesterol synthesis inhibitory effect.
Result: 76
